biological target: Human pyruvate kinase R (PKR) (Homo sapiens, UniProt P30613); construct: Human pyruvate kinase R (PKR), residues 14-574; 6x-His (N, cleaved yes); 8x-Arg (N, cleaved yes); SUMO (N, cleaved yes); host or cells: E. coli; test: Biochemical assay for activation of pyruvate kinase R (Kinase-Glo luminescence, ATP generation); conditions: 0.1 nM PKR, 2 mM FBP, 0.3 mM ADP, 0.1 mM PEP
Sequence (P30613 14-574): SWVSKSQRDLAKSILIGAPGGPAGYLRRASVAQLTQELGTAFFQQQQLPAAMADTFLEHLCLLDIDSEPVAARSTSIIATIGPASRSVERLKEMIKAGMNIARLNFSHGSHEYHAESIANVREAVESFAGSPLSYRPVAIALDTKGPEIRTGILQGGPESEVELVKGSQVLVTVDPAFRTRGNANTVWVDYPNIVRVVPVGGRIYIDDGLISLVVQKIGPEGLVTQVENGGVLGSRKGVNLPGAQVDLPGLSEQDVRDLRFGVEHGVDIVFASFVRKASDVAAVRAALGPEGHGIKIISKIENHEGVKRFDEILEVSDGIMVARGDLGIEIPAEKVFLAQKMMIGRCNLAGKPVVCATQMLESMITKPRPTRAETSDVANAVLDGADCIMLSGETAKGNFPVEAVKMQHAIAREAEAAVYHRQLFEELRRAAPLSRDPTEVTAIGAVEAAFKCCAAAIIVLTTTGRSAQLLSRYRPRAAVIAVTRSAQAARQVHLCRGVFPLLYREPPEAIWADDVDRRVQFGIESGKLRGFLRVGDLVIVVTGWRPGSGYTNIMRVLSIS
Just a reminder that ties go to f: only AC50 strictly below 70 nM counts as t.

[[record]]
compound = "N[C@@H](C(=O)N1Cc2cn(S(=O)(=O)c3ccc4c(c3)NCCO4)nc2C1)c1ccccc1"
group_label = "f"

[[record]]
compound = "CC(O)C(C(=O)N1Cc2cn(S(=O)(=O)c3ccc4ncsc4c3)nc2C1)c1ccccc1 (single isomer, unassigned)"
group_label = "f"

[[record]]
compound = "O=C(N1Cc2cn(S(=O)(=O)c3ccc4c(c3)NCCO4)nc2C1)[C@]1(c2ccccn2)CCOC1 (single isomer, unassigned) [Compound 46]"
group_label = "f"

[[record]]
compound = "O=C([C@@H](c1ccccc1)N1CCOCC1)N1Cc2cn(S(=O)(=O)c3ccc(OC(F)F)cc3)nc2C1 (single isomer, unassigned) [Compound 107]"
group_label = "f"


Q: Take the compound Cc1cccc([C@@]2(C(=O)N3Cc4cn(S(=O)(=O)c5ccc6ncsc6c5)nc4C3)CCOC2)n1 (single isomer, unassigned) [Compound 36] and say whether its AC50 is less than 70 nM.
A: f

Q: Take the compound `N[C@@H](C(=O)N1Cc2cn(S(=O)(=O)c3ccc4ncsc4c3)nc2C1)c1ccc(F)cc1` and say whether its AC50 is less than 70 nM.
A: t

Q: Take the compound `O=C([C@H](CO)c1ccccc1F)N1Cc2cn(S(=O)(=O)c3ccc4ncsc4c3)nc2C1` and say whether its AC50 is less than 70 nM.
A: t

Q: Take the compound `CC(C)(O)[C@H](C(=O)N1Cc2cn(S(=O)(=O)c3ccc4occc4c3)nc2C1)c1ccccc1` and say whether its AC50 is less than 70 nM.
A: f

Q: Take the compound `N[C@@H](C(=O)N1Cc2cn(S(=O)(=O)c3ccc(OC(F)F)cc3)nc2C1)c1ccc(F)cc1` and say whether its AC50 is less than 70 nM.
A: t

Q: Take the compound `Cc1cccc([C@@H](N)C(=O)N2Cc3cn(S(=O)(=O)c4ccc5ncsc5c4)nc3C2)c1` and say whether its AC50 is less than 70 nM.
A: t

* * *

target: Human pyruvate kinase R (PKR) (Homo sapiens); construct: Human pyruvate kinase R (PKR), residues 14-574; 6x-His (N, cleaved yes); 8x-Arg (N, cleaved yes); SUMO (N, cleaved yes); host or cells: E. coli; experiment: Biochemical assay for activation of pyruvate kinase R (Kinase-Glo luminescence, ATP generation); conditions: 0.1 nM PKR, 2 mM FBP, 0.3 mM ADP, 0.1 mM PEP
experimental_endpoint: AC50 (nM)
One number for each entry, in nM.

Example molecules with recorded AC50:
[[record]]
molecule = "O=CN[C@H](C(=O)N1Cc2cn(S(=O)(=O)c3ccc(OC(F)F)cc3)nc2C1)c1ccccc1"
experimental_endpoint = "AC50"
reported_value = 13

[[record]]
molecule = "COc1ccc(S(=O)(=O)n2cc3c(n2)CN(C(=O)[C@H](CO)c2ccccc2F)C3)cc1"
experimental_endpoint = "AC50"
reported_value = 3

[[record]]
molecule = "C[C@@H](O)[C@H](C(=O)N1Cc2cn(S(=O)(=O)c3ccc4ncsc4c3)nc2C1)c1ccccc1 (single isomer, unassigned) [Compound 3]"
experimental_endpoint = "AC50"
reported_value = 44


Would you be so kind as to report AC50 for each listed record?
1. O=C([C@H](CO)c1ncccc1F)N1Cc2cn(S(=O)(=O)c3ccc4ncccc4c3)nc2C1 (single isomer, unassigned) [Compound 102]
2. O=C([C@@H](CO)c1ccccc1)N1Cc2cn(S(=O)(=O)c3ccc4c(c3)OCCO4)nc2C1 (single isomer, unassigned)
3. O=CN[C@@H](C(=O)N1Cc2cn(S(=O)(=O)c3ccc4ncsc4c3)nc2C1)c1ccccc1Cl
4. Cc1cccc([C@@]2(C(=O)N3Cc4cn(S(=O)(=O)c5ccc6ncsc6c5)nc4C3)CCOC2)n1 (single isomer, unassigned) [Compound 35]

A:
1. 12
2. 19
3. 3.8
4. 62

Would you be so kind as to report AC50 for each listed record?
1. O=C([C@H](CO)c1ccccc1)N1Cc2cn(S(=O)(=O)c3ccc4c(cnn4C(F)F)c3)nc2C1
2. O=C([C@H](CO)c1ccccc1)N1Cc2cn(S(=O)(=O)c3ccc(C4CC4)nc3)nc2C1
3. O=C([C@H](O)c1ccccc1)N1Cc2cn(S(=O)(=O)c3ccc4ncsc4c3)nc2C1
4. N[C@@H](C(=O)N1Cc2cn(S(=O)(=O)c3ccc(OC(F)F)cc3)nc2C1)c1ccc(Cl)cc1
5. O=C([C@H](CO)c1ccccc1F)N1Cc2cn(S(=O)(=O)c3cnc4c(c3)OCCO4)nc2C1

A:
1. 14
2. 41
3. 17
4. 23
5. 2.1

# molecule O=C([C@@H](CO)c1ccccc1)N1Cc2cn(S(=O)(=O)c3ccc(OC(F)F)cc3)nc2C1 (single isomer, unassigned) [Compound 7] ; its AC50 = 76
